# Measured Target: T1, P3028 (VFDEFKPLVEEPQNLIK, SEQ ID NO: 185), His-tagged (human)
# T1 construct: Synthetic fragment of human serum albumin (positions 397-413); used in solution as His-tagged peptide PGE73; also called PGE73; not shown: His-tag
# T1 peptide: VFDEFKPLVEEPQNLIK
# Protocol Notes: PEPSCAN ELISA; peptide on chip, His-P3028 added;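 also: peroxidase color development with ABTS and H2O2 substrate, OD405 imaged by CCD camera with image processing and taken as raw values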
Listing of recorded RAMPO Score by entry.

Binder | Result Units | RAMPO Score
MKLDTFFVKLSLFTER [MKLDTFFVKLSLFTER (SEQ ID NO: 275)] | rampo units | 457
KKLDTFFKKLSLFTER (also called SCF 27; SCF27) [P27 (KKLDTFFKKLSLFTER, SEQ ID NO: 264)] | rampo units | 253
KKLDTFGVKLSLFTER [KKLDTFGVKLSLFTER (SEQ ID NO: 96)] | rampo units | 347
KKLDTFWVKLSLFTER [KKLDTFWVKLSLFTER (SEQ ID NO: 425)] | rampo units | 380
KKLDTFFVKLSLFTEM [KKLDTFFVKLSLFTEM (SEQ ID NO: 529)] | rampo units | 238
WKLDTFFVKLSLFTER [WKLDTFFVKLSLFTER (SEQ ID NO: 507)] | rampo units | 284
KKLDTFFVQLSLFTER [KKLDTFFVQLSLFTER (SEQ ID NO: 469)] | rampo units | 330
